Assay: RNA encapsulation efficacy by Quant-IT Ribogreen kit
Assay type: physicochemical
Settings: LNP with mRNA (SEQ ID NO: 2)
metric: Encapsulation Efficiency (%)

CCCCC/C=C\C/C=C\CCCCCCCCN(CCCCCC(=O)OCC(CCCCCCCC)CCCCCCCCCC)CCOC(=O)NCCN(C)C (centres unmarked); 89
CCCCC/C=C\C/C=C\CCCCCCCCN(CCCCCCCC/C=C\CCCCCCCC)CCOC(=O)NCc1ncc[nH]1; 88
CCCCC/C=C\C/C=C\CCCCCCCCN(CCCCCCCC(=O)OC(CCCCCCCC)CCCCCCCC)CCOC(=O)NCCCN(CC)CC; 90.68
CCCCCCCCCCC(CCCCCCCC)COC(=O)CCCCCN(CCCCCCCCOC(=O)C(CCCCCC)CCCCCCCC)CCOC(=O)NCCN(C)C (centres unmarked); 89
CCCCC/C=C\C/C=C\CCCCCCCCN(CCCCCC(=O)OCCCCCCCCCCC)CCOC(=O)NCc1ncc[nH]1; 88
CCCCCCCCCC(=O)OCCCCCCCN(CCCCCCCCOC(=O)C(CCCCCC)CCCCCCCC)CCOC(=O)NCCN1CCCCC1 (centres unmarked); 91.87
CCCCC/C=C\C/C=C\CCCCCCCCN(CCCCCCCC(=O)OC(CCCCCCCC)CCCCCCCC)CCOC(=O)NCc1ncc[nH]1; 89.06
CCCCC/C=C\C/C=C\CCCCCCCCN(CCCCCCCC(=O)OC(CCCCCCCC)CCCCCCCC)CCOC(=O)NCCN1CCCC1; 91

###

Assay: RNA encapsulation efficacy by Quant-IT Ribogreen kit
Assay type: physicochemical
Settings: LNP with cirRNA (SEQ ID NO: 1)
metric: Encapsulation Efficiency % (%)

CCCCCCCCC(CCCCCCCC)OC(=O)CCCCCCCN(CCCCCCCCOC(=O)C(CCCCCC)CCCCCCCC)CCOC(=O)NCCN1CCCCC1 (stereo not drawn); 88
CCCCCCCCCCCOC(=O)CCCCCN(CCCCCC(=O)OCCCCCCCCCCC)CCOC(=O)NCCN(C)C; 90
CCCCCCCCCC(=O)OCCCCCCCN(CCCCCCCCOC(=O)C(CCCCCC)CCCCCCCC)CCCOC(=O)NCCN(C)C (stereo not drawn); 89

###

System: RAW 264.7 cells
Experiment: In vitro toxicity (CellTiter-Glo cell viability), RAW 264.7;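 also: percent of untreated cells luminescence signal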
Type: cell-based
Settings: cirRNA (SEQ ID NO: 1) LNPs; RAW 264.7 cells
metric: In vitro Viability RAW (%)
Give the number; % is assumed, so skip it.

Provide In vitro Viability RAW value for the following compound: CCCCCCCCCCC(CCCCCCCC)COC(=O)CCCCCN(CCCCCC(=O)OCC(CCCCCCCC)CCCCCCCCCC)CCOC(=O)NCc1ncc[nH]1 (stereo not shown)
88

Provide In vitro Viability RAW value for the following compound: CCCCCCCCCC(=O)OCCCCCCCN(CCCCCCCCOC(=O)C(CCCCCC)CCCCCCCC)CCOC(=O)NCCN1CCCCC1 (stereo not shown)
91

Provide In vitro Viability RAW value for the following compound: CCCCCCCC/C=C\CCCCCCCCN(CCCCCCCCOC(=O)C(CCCCCC)CCCCCCCC)CCOC(=O)NCCN(C)C (stereo not shown)
91

Provide In vitro Viability RAW value for the following compound: CCCCCCCCCCCOC(=O)CCCCCN(CCCCCCCC(=O)OC(CCCCCCCC)CCCCCCCC)CCOC(=O)NCc1ncc[nH]1
90
